Tested on: human normal liver cell line WRL-68
assay_comment: MTT cell viability assay, WRL68
Assay type: cell-based
condition_parameters: 24 h treatment
assay_metric: IC50 (µg/mL)
Numeric only. Scale: µg/mL

Here's what some known entries look like.
> print(dat)
                                   molecule  result
1            COc1ccc(C(=O)/C=C/c2ccccc2)cc1    57.3
2           COc1ccc(C(=O)/C=C/c2ccccc2O)cc1    8.72
3  O=C(/C=C/c1ccccc1O)c1ccccc1 [Compound 21, 3-(2-Hydroxyphenyl)-1-phenylpropenone]      17
4            O=C(/C=C/c1cccc(Cl)c1)c1ccccc1    7.72
5             Cc1cccc(/C=C/C(=O)c2ccccc2)c1    9.78
6  Cc1ccc(C(=O)/C=C/c2ccccc2O)cc1 [Compound 23, 3-(2-Hydroxyphenyl)-1-p-tolylpropenone]    9.53
7        COc1ccc(/C=C/C(=O)c2ccc(OC)cc2)cc1    60.8

Next molecule, IC50 to be filled in.
I'd like to know its IC50. The molecule in question is O=C(/C=C/c1ccccc1Cl)c1ccc(O)cc1 13.2

###

Tested on: human lung adenocarcinoma cell line A549
assay_comment: MTT cell viability assay, A549
Assay type: cell-based
condition_parameters: 24 h treatment
Label key: fulfilled means IC50 under 30 µg/mL; not fulfilled means IC50 of 30 µg/mL or more.

Look over these answered cases.
> print(dat)
                                   compound    label.class
1  Cc1cccc(/C=C/C(=O)c2ccc(O)cc2)c1 [Compound 10, 1-(4-Hydroxyphenyl)-3-m-tolylpropenone]      fulfilled
2  COc1ccc(C(=O)/C=C/c2ccccc2)cc1 [Compound 4, 1-(4-Methoxyphenyl)-3-phenylpropenone]  not fulfilled
3  Cc1ccc(C(=O)/C=C/c2cccc(C)c2)cc1 [Compound 11, 3-m-Tolyl-1-p-tolylpropenone]      fulfilled

Continue with the next compound.
hey, is IC50 for O=C(/C=C/c1ccccc1O)c1ccc(O)cc1 [Compound 22] lower than 30 µg/mL or not? not fulfilled

###

The compounds listed here are annotated with their melting point.

Here's what some known entries look like.
> print(dat)
                               compound         result
1        O=C(/C=C/c1ccccc1O)c1ccc(O)cc1  287 to 289 °C
2       Cc1ccc(C(=O)/C=C/c2ccccc2Cl)cc1    50 to 51 °C
3         Cc1cccc(/C=C/C(=O)c2ccccc2)c1    68 to 70 °C
4     COc1ccc(C(=O)/C=C/c2cccc(C)c2)cc1    74 to 75 °C
5          O=C(/C=C/c1ccccc1Cl)c1ccccc1    53 to 54 °C
6  Cc1ccc(C(=O)/C=C/c2ccc(N(C)C)cc2)cc1  124 to 125 °C

Next compound, melting point to be filled in.
I'd like to know its melting point. The compound in question is Cc1ccc(C(=O)/C=C/c2ccccc2O)cc1 [Compound 23, 3-(2-Hydroxyphenyl)-1-p-tolylpropenone] 165 to 167 °C

###

The compounds listed here are annotated with their IC50.
Test system: human normal liver cell line WRL-68
assay_comment: MTT cell viability assay, WRL68
Assay type: cell-based
condition_parameters: 24 h treatment
Numeric only. Scale: µg/mL

Here's what some known entries look like.
> print(dat)
                            compound  result
1         O=C(/C=C/c1ccccc1)c1ccccc1    10.6
2   Cc1ccc(C(=O)/C=C/c2cccc(C)c2)cc1    13.9
3  COc1ccc(C(=O)/C=C/c2cccc(C)c2)cc1    11.1

I'd like to know its IC50. The compound in question is Cc1cccc(/C=C/C(=O)c2ccc(O)cc2)c1 [Compound 10, 1-(4-Hydroxyphenyl)-3-m-tolylpropenone] 13.4

###

The compounds listed here are annotated with their IC50.
Test system: human normal liver cell line WRL-68
assay_comment: MTT cell viability assay, WRL68
Type: cell-based
condition_parameters: 24 h treatment

Here's what some known entries look like.
> print(dat)
                                   compound                       assayed.target       result
1  O=C(/C=C/c1ccccc1)c1ccc(O)cc1 [Compound 2, 1-(4-Hydroxyphenyl)-3-phenylpropenone]  human normal liver cell line WRL-68  > 100 µg/mL
2      CN(C)c1ccc(/C=C/C(=O)c2ccc(O)cc2)cc1  human normal liver cell line WRL-68  > 100 µg/mL

I'd like to know its IC50. The compound in question is COc1ccc(C(=O)/C=C/c2ccc(N(C)C)cc2)cc1 > 100 µg/mL

###

System: human lung adenocarcinoma cell line A549
assay_comment: MTT cell viability assay, A549
Format: cell-based
condition_parameters: 24 h treatment
assay_metric: IC50 (µg/mL)
Numeric only. Scale: µg/mL

Here's what some known entries look like.
> print(dat)
                                   molecule  result.unit  result
1              O=C(/C=C/c1ccccc1Cl)c1ccccc1        µg/mL    19.9
2  O=C(/C=C/c1ccccc1O)c1ccccc1 [Compound 21, 3-(2-Hydroxyphenyl)-1-phenylpropenone]        µg/mL    22.6
3             Cc1cccc(/C=C/C(=O)c2ccccc2)c1        µg/mL    24.7
4                O=C(/C=C/c1ccccc1)c1ccccc1        µg/mL    16.8
5           O=C(/C=C/c1ccccc1Cl)c1ccc(O)cc1        µg/mL    25.2
6         COc1ccc(C(=O)/C=C/c2cccc(C)c2)cc1        µg/mL    31.8

I'd like to know its IC50. The molecule in question is Cc1ccc(C(=O)/C=C/c2ccccc2)cc1 36.6

Repeat for the following molecule: Cc1ccc(C(=O)/C=C/c2ccc(N(C)C)cc2)cc1 58.5

Repeat for the following molecule: COc1ccc(/C=C/C(=O)c2ccccc2)cc1 32.6

Repeat for the following molecule: O=C(/C=C/c1cccc(Cl)c1)c1ccccc1 14.5

Repeat for the following molecule: COc1ccc(C(=O)/C=C/c2ccc(N(C)C)cc2)cc1 78.8

Repeat for the following molecule: COc1ccc(C(=O)/C=C/c2ccccc2O)cc1 14.2

Repeat for the following molecule: Cc1ccc(C(=O)/C=C/c2ccccc2O)cc1 [Compound 23, 3-(2-Hydroxyphenyl)-1-p-tolylpropenone] 16.8
